Measured response (Relative AS signal) accompanies every entry in the list below.
B1: FLAG-GST-SALL4 (wild type) [human] / biotinylated CRBN (wild type) [modified: biotin (added by BirA during cell-free synthesis); biotin (added by BirA during cell-free synthesis)] [human] (parent)
chain 1: MSRRKQAKPQHINSEEDQGEQQPQQQTPEFADAAPAAPAAGELGAPVNHPGNDEVASEDEATVKRLRREETHVCEKCCAEFFSISEFLEHKKNCTKNPPVLIMNDSEGPVPSEDFSGAVLSHQPTSPGSKDCHRENGGSSEDMKEKPDAESVVYLKTETALPPTPQDISYLAKGKVANTNVTLQALRGTKVAVNQRSADALPAPVPGANSIPWVLEQILCLQQQQLQQIQLTEQIRIQVNMWASHALHSSGAGADTLKTLGSHMSQQVSAAVALLSQKAGSQGLSLDALKQAKLPHANIPSATSSLSPGLAPFTLKPDGTRVLPNVMSRLPSALLPQAPGSVLFQSPFSTVALDTSKKGKGKPPNISAVDVKPKDEAALYKHKCKYCSKVFGTDSSLQIHLRSHTGERPFVCSVCGHRFTTKGNLKVHFHRHPQVKANPQLFAEFQDKVAAGNGIPYALSVPDPIDEPSLSLDSKPVLVTTSVGLPQNLSSGTNPKDLTGGSLPGDLQPGPSPESEGGPTLPGVGPNYNSPRAGGFQGSGTPEPGSETLKLQQLVENIDKATTDPNECLICHRVLSCQSSLKMHYRTHTGERPFQCKICGRAFSTKGNLKTHLGVHRTNTSIKTQHSCPICQKKFTNAVMLQQHIRMHMGGQIPNTPLPENPCDFTGSEPMTVGENGSTGAICHDDVIESIDVEEVSSQEAPSSSSKVPTPLPSIHSASPTLGFAMMASLDAPGKVGPAPFNLQRQGSRENGSVESDGLTNDSSSLMGDQEYQSRSPDILETTSFQALSPANSQAESIKSKSPDAGSKAESSENSRTEMEGRSSLPSTFIRAPPTYVKVEVPGTFVGPSTLSPGMTPLLAAQPRRQAKQHGCTRCGKNFSSASALQIHERTHTGEKPFVCNICGRAFTTKGNLKVHYMTHGANNNSARRGRKLAIENTMALLGTDGKRVSEIFPKEILAPSVNVDPVVWNQYTSMLNGGLAVKTNEISVIQSGGVPTLPVSLGATSVVNNATVSKMDGSQSGISADVEKPSATDGVPKHQFPHFLEENKIAVS
chain 2: MAGEGDQQDAAHNMGNHLPLLPAESEEEDEMEVEDQDSKEAKKPNIINFDTSLPTSHTYLGADMEEFHGRTLHDDDSCQVIPVLPQVMMILIPGQTLPLQLFHPQEVSMVRNLIQKDRTFAVLAYSNVQEREAQFGTTAEIYAYREEQDFGIEIVKVKAIGRQRFKVLELRTQSDGIQQAKVQILPECVLPSTMSAVQLESLNKCQIFPSKPVSREDQCSYKWWQKYQKRKFHCANLTSWPRWLYSLYDAETLMDRIKKQLREWDENLKDDSLPSNPIDFSYRVAACLPIDDVLRIQLLKIGSAIQRLRCELDIMNKCTSLCCKQCQETEITTKNEIFSLSLCGPMAAYVNPHGYVHETLTVYKACNLNLIGRPSTEHSWFPGYAWTVAQCKICASHIGWKFTATKKDMSPQKFWGLTRSALLPTIPDTEDEISPDKVILCL

Variants of: B1
Assay: AlphaScreen (AS-based interaction assay)
Details: with biotinylated CRBN (wild type) [modified: biotin (added by BirA during cell-free synthesis), pomalidomide, last (highest) point of the titration, Log[Pom (µM)] = 2, signal relative to DMSO = 1, read off a plot

# Variant Designation, response (Relative AS signal)
measured = [
    ("chain 1 V411K", 8),
    ("chain 1 V411R", 37),
    ("chain 1 V411Q", 100),
    ("chain 1 V411I", 78),
    ("chain 1 V411A", 52),
    ("chain 1 V411H", 22),
]
